Reported relative percent rate of oxidation by SADH values are given for each entry in this list.
Tested on: secondary alcohol dehydrogenase (SADH)
Assay: Purified secondary alcohol dehydrogenase activity (formation of reduced NAD)
Type: biochemical, Pseudomonas sp. ATCC 21439
Details: 2-butanol = 100%
Return type: number; implicit unit %.

INSERT INTO measurements (compound, measurement) VALUES
  ('CC(O)C(C)O (centres unmarked) [butane 2,3-diol]', 2.5),
  ('CC=O [acetaldehyde]', 4),
  ('CCCC(C)O (centres unmarked) [2-pentanol]', 5);

[Q] I am curious: what relative percent rate of oxidation by SADH value has been reported for CC(C)O [2-propanol] ?
[A] 85

[Q] I am curious: what relative percent rate of oxidation by SADH value has been reported for CCCCC(C)O (centres unmarked) [2-hexanol] ?
[A] 2

[Q] I am curious: what relative percent rate of oxidation by SADH value has been reported for OC1CCCCC1 [cyclohexanol] ?
[A] 4

[Q] I am curious: what relative percent rate of oxidation by SADH value has been reported for CC(O)CCO (centres unmarked) [butane 1,3-diol] ?
[A] 2

###

Test system: secondary alcohol dehydrogenase
Assay: Purified yeast secondary alcohol dehydrogenase: substrates, electron acceptors, inhibitors, stoichiometry
Type: biochemical, Pichia sp. NRRL Y-11,328
assay_endpoint: inhibition of secondary alcohol dehydrogenase activity

// worked examples, inhibition of secondary alcohol dehydrogenase activity included
INSERT INTO results (molecule, target_entity, measurement) VALUES
  ('N#C[S][Hg][S]C#N [mercuric thiocyanate]', 'secondary alcohol dehydrogenase', 'inhibited'),
  ('c1c[nH]cn1', 'secondary alcohol dehydrogenase', 'strongly inhibited'),
  ('N[C@@H](CCC(=O)N[C@@H](CS)C(=O)NCC(=O)O)C(=O)O', 'secondary alcohol dehydrogenase', 'strongly inhibited'),
  ('c1cnc2c(c1)ccc1cccnc12', 'secondary alcohol dehydrogenase', 'strongly inhibited'),
  ('O=S(=O)([O-])[O-].[Cu+2] [Cupric Sulfate]', 'secondary alcohol dehydrogenase', 'inhibited'),
  ('O=[N+]([O-])[O-].[Ag+] [silver nitrate]', 'secondary alcohol dehydrogenase', 'inhibited');

[Q] I am curious: what inhibition of secondary alcohol dehydrogenase activity value has been reported for O=C(O)c1cc[c]([Hg+])cc1.[OH-] [p-hydroxymercuribenzoate] ?
[A] strongly inhibited

###

System: P(40) particulate fraction of Methylosinus sp. (CRL-15, NRRL B-11,202)
Assay: Effect of inhibitors on propylene epoxidation and methane hydroxylation by P(40) fraction
Type: biochemical
Conditions: inhibitor 10^-3 M
assay_endpoint: % Inhibition, Methane-Hydroxylating Activity (%)
Return type: number; implicit unit %.

// worked examples, % Inhibition, Methane-Hydroxylating Activity included
INSERT INTO measurements (compound, measurement) VALUES
  ('Oc1cccc2cccnc12 [8-Hydroxyquinoline]', 80),
  ('c1ccc(-c2ccccn2)nc1', 99),
  ('c1cnc2c(c1)ccc1cccnc12', 90);

[Q] I am curious: what % Inhibition, Methane-Hydroxylating Activity value has been reported for NNC(N)=S [Thiosemicarbazide] ?
[A] 100

[Q] I am curious: what % Inhibition, Methane-Hydroxylating Activity value has been reported for `NC(N)=S` ?
[A] 98

###

Tested on: secondary alcohol dehydrogenase
Assay: Purified yeast secondary alcohol dehydrogenase: substrates, electron acceptors, inhibitors, stoichiometry
Format: biochemical, Pichia sp. NRRL Y-11,328
Conditions: examined spectrophotometrically
assay_endpoint: oxidation by the purified secondary alcohol dehydrogenase

// worked examples, oxidation by the purified secondary alcohol dehydrogenase included
INSERT INTO results (compound, measurement) VALUES
  ('CCCCCC(C)O (stereo not shown)', 'not oxidized'),
  ('CCCC(C)O (stereo not shown)', 'catalyzed the oxidation'),
  ('CCCCC(C)O (stereo not shown)', 'catalyzed the oxidation'),
  ('CO', 'not oxidized'),
  ('CCCCCO', 'not oxidized'),
  ('CCC(O)CO (stereo not shown)', 'not oxidized'),
  ('CC(O)CO (stereo not shown)', 'not oxidized'),
  ('CCCCCCC(C)O (stereo not shown)', 'not oxidized');

[Q] I am curious: what oxidation by the purified secondary alcohol dehydrogenase value has been reported for CC(O)CCO (stereo not shown) ?
[A] not oxidized

[Q] I am curious: what oxidation by the purified secondary alcohol dehydrogenase value has been reported for `CC(C)O` ?
[A] catalyzed the oxidation

Numbers sourced from patent US4241184A.
